Where do the numbers come from? From ChEMBL document CHEMBL1154969.

system-tested: Vitamin D3 receptor (Homo sapiens)
protocol-text: Displacement of 1,25-dihydroxyvitamin D3 from GST-tagged VDR ligand binding domain assessed as inhibition of interaction with coactivator proteins at 30 uM by TR-FRET assay
Form field: inhibition (one value per entry).

# structure-string, inhibition [%]
data = [
    ("CC(C)CCN1Cc2cc(CC(C)C)c(NC(=N)N)cc2N[C@@H](CC(C)C)C1=O", 46),
    ("CC(C)CCN1Cc2cc(CC(C)C)c(N)cc2N[C@@H](CC(C)C)C1=O", 48),
    ("CC(C)=Cc1cc2c(cc1N)N[C@@H](CC(C)C)C(=O)N(CCC(C)C)C2", 76),
    ("CC(=O)NCCNc1cc2c(cc1CC(C)C)CN(CCC(C)C)C(=O)[C@H](CC(C)C)N2", 43),
]
